Molecular target: GDP-bound KRAS protein (aa 1-169), containing both G12C and C118A amino acid substitutions (Homo sapiens, UniProt P01116, C118A/G12C)
Sequence (P01116 1-169 isoform P01116-2 G12C/C118A): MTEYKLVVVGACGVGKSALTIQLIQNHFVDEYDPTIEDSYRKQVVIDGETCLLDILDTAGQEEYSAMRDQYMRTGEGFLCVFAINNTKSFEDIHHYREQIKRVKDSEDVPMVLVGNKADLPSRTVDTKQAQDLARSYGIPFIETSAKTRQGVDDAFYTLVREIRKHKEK
Experiment: Coupled nucleotide exchange assay (SOS-mediated, AlphaScreen)
Assay type: biochemical
Settings: 5 min compound pre-incubation
Answer each item with its documented Coupled exchange IC50 (5 min).

Query: // Coupled exchange IC50 (5 min) lookup, key: C=CC(=O)N1CCN(c2nc(=O)n(-c3ccccc3C3CCC3)c3nc(-c4c(O)cccc4F)c(Cl)cc23)[C@@H](C)C1 (single isomer, unassigned) [Example 54-10-1]
Reply: 1.21 | nda μM

Query: // Coupled exchange IC50 (5 min) lookup, key: C=CC(=O)N1CCN(c2nc(=O)n(-c3c(Cl)cccc3C(C)C)c3nc(-c4c(O)cccc4F)c(F)cc23)[C@@H](C)C1 (single isomer, unassigned) [Example 57-15-1]
Reply: 0.089 | nda μM

Query: // Coupled exchange IC50 (5 min) lookup, key: C=CC(=O)N1CCN(c2nc(=O)n(-c3c(C)cccc3C(C)C)c3nc(-c4nc(N)ccc4Cl)c(F)cc23)[C@@H](C)C1 (single isomer, unassigned) [Example 71-1-2]
Reply: 4.89 | nda μM

Query: // Coupled exchange IC50 (5 min) lookup, key: C=CC(=O)N1CCN(c2nc(=O)n(-c3c(C)cccc3C(C)C)c3nc(-c4nc(N)ccc4Cl)c(Cl)cc23)[C@@H](C)C1 [Example 70-3]
Reply: 0.125 | nda μM

Query: // Coupled exchange IC50 (5 min) lookup, key: C=CC(=O)N1CCN(c2nc(=O)n(-c3ccccc3C(C)C)c3nc(-c4ccc(F)cc4O)c(Cl)cc23)[C@@H](C)C1 (single isomer, unassigned) [Example 54-77-1]
Reply: 2.71 | nda μM

Query: // Coupled exchange IC50 (5 min) lookup, key: C=CC(=O)N1CCN(c2nc(=O)n(-c3c(C)ccnc3C(C)C)c3nc(-c4cc(OC(F)(F)F)ccc4F)c(Cl)cc23)[C@@H](C)C1 (atropisomer, axis not shown; (M)) [Example 73-7]
Reply: 0.241 | nda μM

Query: // Coupled exchange IC50 (5 min) lookup, key: C=CC(=O)N1CCN(c2nc(=O)n(-c3c(C)ccnc3C(C)C)c3nc(-c4cccc(O)c4F)c(F)cc23)[C@@H](C)C1 (atropisomer, axis not shown; (M)) [Example 72-5]
Reply: 2.91 | nda μM

====

Answer each item with its documented Coupled exchange IC50 (5 min).
Biological target: GDP-bound KRAS protein (aa 1-169), containing both G12C and C118A amino acid substitutions (Homo sapiens, UniProt P01116, C118A/G12C)
Assay: Coupled nucleotide exchange assay (SOS-mediated, AlphaScreen)
Assay type: biochemical
Conditions: 5 min compound pre-incubation

Query: // Coupled exchange IC50 (5 min) lookup, key: C=CC(=O)N1CCN(c2nc(=O)n(-c3c(C(C)C)ncc(O)c3C)c3nc(-c4ccccc4F)c(Cl)cc23)[C@@H](C)C1 (single isomer, unassigned) [Example 83-2]
Reply: 0.035 | nda μM

Query: // Coupled exchange IC50 (5 min) lookup, key: C=CC(=O)N1CCN(c2nc(=O)n(-c3c(C)ccnc3C(C)C)c3nc(-c4c(O)cccc4Cl)c(F)cc23)[C@@H](C)C1 [Example 58-9]
Reply: 0.095 | nda μM

Query: // Coupled exchange IC50 (5 min) lookup, key: C=CC(=O)N1CCN(c2nc(=O)n(-c3c(C)ccnc3C(C)C)c3nc(-c4cc(O)cc(Cl)c4Cl)c(F)cc23)[C@@H](C)C1 (single isomer, unassigned) [Example 58-7-1]
Reply: 0.335 | nda μM

Query: // Coupled exchange IC50 (5 min) lookup, key: C=CC(=O)N1C[C@@H]2C[C@H]1CN2c1nc(=O)n(-c2ccccc2C(C)C)c2nc(-c3c(O)cccc3F)c(Cl)cc12 [Example 54-50]
Reply: 88.8 | nda μM

Query: // Coupled exchange IC50 (5 min) lookup, key: C=CC(=O)N1CCN(c2nc(=O)n(-c3ccccc3C)c3nc(OCCCC)c(Cl)cc23)[C@@H](C)C1 [Example 60-13]
Reply: 85 | nda μM

Query: // Coupled exchange IC50 (5 min) lookup, key: C=CC(=O)N1CCN(c2nc(=O)n(-c3c(C)cccc3C(C)(C)C)c3nc(-c4c(O)cccc4F)c(F)cc23)[C@@H](C)C1 [Example 57-17]
Reply: 0.574 | nda μM

Query: // Coupled exchange IC50 (5 min) lookup, key: C=CC(=O)N1CC(N(C)c2nc(=O)n(-c3c(C)ccnc3C(C)C)c3nc(-c4ccccc4F)c(Cl)cc23)C1 [76-2]
Reply: 20.1 | nda μM

Query: // Coupled exchange IC50 (5 min) lookup, key: C=CC(=O)N1CCN(c2nc(=O)n(-c3c(C)ccnc3C(C)C)c3nc(-c4ccccc4F)c(Cl)nc23)[C@@H](C)C1 (single isomer, unassigned) [Example 111-2]
Reply: 0.86 | nda μM
